All figures here come from ChEMBL document CHEMBL5120825.

protocol details: Octanol-water partition coefficient, logD of the compound at pH 2 by HPLC analysis
Assay type: physicochemical
readout type: logD
Please give the numeric answer without any surrounding text.

[[record]]
molecule_smiles = "O=C(Cn1ccccc1=O)Nc1cc2ccccc2[nH]1"
readout_type = "logD"
observed_measurement = 1

[[record]]
molecule_smiles = "CN(C)C(=O)c1cn(C)c2ccccc12"
readout_type = "logD"
observed_measurement = 1.8

[[record]]
molecule_smiles = "COC(=O)c1ccc2c(C(=O)c3ccccc3)c[nH]c2c1"
readout_type = "logD"
observed_measurement = 3.1


Any idea what its logD is? The compound is `O=C(NCCc1c[nH]c2ccccc12)c1ccc2[nH]cc(C(=O)c3ccccc3)c2c1`
3.3

Record: `CN(C)C(=O)Cc1ccc2cc[nH]c2c1`
1.4

Record: `COC(=O)c1ccc2c(C(=O)N(C)C)cn(C)c2c1`
1.9

Record: `COC(=O)c1ccc2[nH]cc(C(=O)c3ccccc3)c2c1`
2.9

Record: `NC(=O)C1CCN(C(=O)c2cccc3ccccc23)CC1`
1.3

Record: `NC(=O)C1CCN(C(=O)c2ccc3cccccc2-3)CC1`
1.2

Record: `Cn1cc(C(=O)N2CCC(C(N)=O)CC2)c2ccccc21`
1.1

Record: `CN(C)C(=O)Cc1ccc2ccccc2c1`
2.7

Record: `CN(C)C(=O)c1cccc2ccccc12`
2.2

Record: `CN(C)C(=O)c1ccc2cccccc1-2`
2.1

Record: `O=C(NCCO)c1ccc2[nH]cc(C(=O)c3ccccc3)c2c1`
1.3

Record: `COC(=O)c1ccc2c(C(=O)Nc3ccccc3)cn(C)c2c1`
3.4

---

protocol details: Photostability of the compound at pH 4.0 assessed as compound degradation administered as solution irradiated with sun light and measured after 7 days by HPLC analysis
Format: physicochemical
settings: time 7 day, read-out: Drug degradation
readout type: degraded at 168 h

Any idea what its degraded at 168 h is? The compound is `O=C(O)c1ccc2cccc-2cc1`
< 0.5%

---

Listed below: solubility thermodynamic at 24 h values for each entry.
protocol details: Aqueous solubility of the compound at pH 2.2 incubated for 24 hrs under shaking condition by LC-UV analysis
Type: physicochemical
settings: aqueous medium

[[record]]
compound = "COC(=O)c1ccc2ccn(C(=O)c3ccccc3)c2c1"
observed_measurement = "< 1 µg/mL"

[[record]]
compound = "CN1CCN(C(=O)c2ccc3ccc(C(=O)c4ccccc4)c-3cc2)CC1"
observed_measurement = "> 90 µg/mL"

[[record]]
compound = "Cn1cc(C(=O)c2ccccc2)c2cc(C(=O)NCCc3cnc[nH]3)ccc21"
observed_measurement = "84 µg/mL"


Any idea what its solubility thermodynamic at 24 h is? The compound is `COC(=O)c1ccc2c(ccn2C(=O)c2ccccc2)c1`
< 1 µg/mL

Record: `CN(C)C(=O)c1c[nH]c2ccccc12`
> 47 µg/mL

Record: `COC(=O)c1ccc2c(C(=O)c3ccccc3)cn(C(=O)c3ccccc3)c2c1`
< 1 µg/mL

Record: `Cn1cc(C(=O)N2CCC(C(N)=O)CC2)c2ccccc21`
> 71 µg/mL

Record: `c1ccc2cc(CN3CCCCC3)ccc2c1`
34 µg/mL

Record: `Cn1cc(C(=O)c2ccccc2)c2cc(C(=O)NCCc3c[nH]c4ccccc34)ccc21`
< 1 µg/mL

Record: `O=C(NCc1cccnc1)c1ccc2[nH]cc(C(=O)c3ccccc3)c2c1`
> 79 µg/mL

Record: `CN(C)C(=O)c1cccc2ccccc12`
> 47 µg/mL

Record: `NC(=O)C1CCN(C(=O)c2cccc3ccccc23)CC1`
> 70 µg/mL

Record: `COC(=O)c1ccc2c(C(=O)N(C)C)cn(C)c2c1`
50 µg/mL

Record: `O=C(Nc1cc2cccccc-2c1)c1cccnc1`
43 µg/mL

Record: `Cn1cc(C(=O)c2ccccc2)c2cc(C(=O)NCc3cccnc3)ccc21`
81 µg/mL

Record: `O=C(Cn1ccccc1=O)Nc1cc2ccccc2[nH]1`
> 60 µg/mL

Record: `O=C(NCCc1cnc[nH]1)c1ccc2ccc(C(=O)c3ccccc3)c-2cc1`
> 77 µg/mL

Record: `COC(=O)c1ccc2ccc(C(=O)Nc3ccccc3)c-2cc1`
< 1 µg/mL

Record: `O=C(Nc1ccc2ccccc2c1)c1cccnc1`
> 50 µg/mL

Record: `O=C(NCCO)c1ccc2[nH]cc(C(=O)c3ccccc3)c2c1`
39 µg/mL

Record: `CN(C)C(=O)Cc1ccc2cccc-2cc1`
> 44 µg/mL

Record: `COC(=O)c1ccc2c(C(=O)c3ccccc3)c[nH]c2c1`
< 1 µg/mL

Record: `Cn1c(NC(=O)c2cccnc2)cc2ccccc21`
> 59 µg/mL

Record: `c1cc2ccc(CN3CCCCC3)ccc-2c1`
> 56 µg/mL

Record: `O=C(NCCc1c[nH]c2ccccc12)c1ccc2ccc(C(=O)c3ccccc3)c-2cc1`
< 1 µg/mL

Record: `O=C(NCCO)c1ccc2ccc(C(=O)c3ccccc3)c-2cc1`
14 µg/mL

Record: `CN1CCN(C(=O)c2ccc3c(c2)c(C(=O)c2ccccc2)cn3C)CC1`
78 µg/mL
